Data origin, for the record: patent US11566007B2

# IC50 listing for each entry below
biological target: NRAS Q61K (Homo sapiens (Human), UniProt P01111+P62937, Q61K); experiment: Ras-Raf (BRAF RBD) disruption / FRET / MOA assay, NRAS Q61K; type: biochemical; conditions: NRAS Q61K; Ras-Raf disruption/FRET/MOA assay; read-out: IC50* NRAS Q61K FRET data
Sequence (P01111 whole entry Q61K): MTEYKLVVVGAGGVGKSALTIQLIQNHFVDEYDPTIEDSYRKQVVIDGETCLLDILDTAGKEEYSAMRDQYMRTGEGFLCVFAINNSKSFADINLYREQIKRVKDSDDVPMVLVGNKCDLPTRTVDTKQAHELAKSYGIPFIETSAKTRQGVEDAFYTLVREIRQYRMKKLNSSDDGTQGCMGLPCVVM
Sequence (P62937 whole entry): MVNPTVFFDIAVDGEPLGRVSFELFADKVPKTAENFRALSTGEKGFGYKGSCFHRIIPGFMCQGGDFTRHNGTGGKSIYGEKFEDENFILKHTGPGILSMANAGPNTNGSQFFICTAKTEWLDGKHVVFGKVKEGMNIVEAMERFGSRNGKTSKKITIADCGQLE
measured.attribute: IC50

>  <compound>
C=CC(=O)N1CC[C@H](C(=O)N(C)[C@H](C(=O)N[C@H]2Cc3cc(O)cc(c3)-c3ccc4c(c3)c(c(-c3cccnc3[C@@H](OC)C3CC3)n4CC)CC(C)(C)COC(=O)[C@@H]3CCCN(N3)C2=O)C(C)C)C1 (atropisomer, axis not shown)

>  <measured.attribute>
IC50

>  <result>
100 to 1000 nM

$$$$
>  <compound>
CCn1c(-c2cccnc2[C@H](C)OC)c2c3cc(ccc31)-c1csc(n1)C[C@H](NC(=O)CCOC1CN(C(=O)C#CC(C)(C)N(C)C)C1)C(=O)N1CCC[C@H](N1)C(=O)OCC(C)(C)C2 (atropisomer, axis not shown)

>  <measured.attribute>
IC50

>  <result>
1000 to 10000 nM

$$$$
>  <compound>
C=C(C)C(=O)N1CC2(CCN(C(=O)N(C)[C@H](C(=O)N[C@H]3Cc4nc(cs4)-c4ccc5c(c4)c(c(-c4cccnc4[C@H](C)OC)n5CC)CC(C)(C)COC(=O)[C@@H]4CCCN(N4)C3=O)C(C)C)CC2)C1 (atropisomer, axis not shown)

>  <measured.attribute>
IC50

>  <result>
10 to 100 nM

$$$$
>  <compound>
CO[C@@H](C)c1ncccc1-c1c2c3cc(ccc3n1CC(F)(F)F)-c1cccc(c1)C[C@H](NC(=O)[C@@H](COC1CN(C(=O)C#CC(C)(C)N(C)C)C1)C(C)C)C(=O)N1CCC[C@H](N1)C(=O)OCC(C)(C)C2 (atropisomer, axis not shown)

>  <measured.attribute>
IC50

>  <result>
> 10000 nM

$$$$
>  <compound>
C=CC(=O)N1C[C@H](C)N(C(=O)N(C)[C@H](C(=O)N[C@H]2Cc3nc(cs3)-c3ccc4c(c3)c(c(-c3cccnc3[C@H](C)OC)n4CC)CC(C)(C)COC(=O)[C@@H]3CCCN(N3)C2=O)C(C)C)CC12CC2 (atropisomer, axis not shown)

>  <measured.attribute>
IC50

>  <result>
100 to 1000 nM

$$$$
>  <compound>
C=CC(=O)N1CCOC2(CCN(C(=O)N(C)[C@H](C(=O)N[C@H]3Cc4nc(n(C)n4)-c4ccc5c(c4)c(c(-c4cccnc4[C@H](C)OC)n5CC(F)(F)F)CC(C)(C)COC(=O)[C@@H]4CCCN(N4)C3=O)C(C)C)CC2)C1 (atropisomer, axis not shown)

>  <measured.attribute>
IC50

>  <result>
100 to 1000 nM

$$$$
>  <compound>
CCn1c(-c2cccnc2[C@H](C)OC)c2c3cc(ccc31)-c1cccc(c1)C[C@H](NC(=O)[C@H](C(C)C)N1CC[C@]3(CCN(C(=O)C#CC(C)(C)N(C)C)C3)C1=O)C(=O)N1CCC[C@H](N1)C(=O)OCC(C)(C)C2 (atropisomer, axis not shown)

>  <measured.attribute>
IC50

>  <result>
1000 to 10000 nM

$$$$
>  <compound>
C=CC(=O)N1CCO[C@H]2CN(C(=O)N(C)[C@H](C(=O)N[C@H]3C[C@H]4CN(CCO4)c4ccc5c(c4)c(c(-c4cccnc4[C@H](C)OC)n5CC)CC(C)(C)COC(=O)[C@@H]4CCCN(N4)C3=O)C(C)C)C[C@H]21

>  <measured.attribute>
IC50

>  <result>
1000 to 10000 nM

$$$$

====

As shown below, each of these compounds has a reported pIC50 value.
biological target: KRAS G12D (Homo sapiens (Human), UniProt P01116+P62937, G12D); assay: Ras-Raf (BRAF RBD) disruption / FRET / MOA assay, KRAS G12D; assay type: biochemical; details: Ras-Raf disruption/FRET/MOA assay; class symbols; read-out: KRAS G12D FRET data IC50
Sequence (P01116-2 other isoform, or with tags, fused parts or gaps G12D, one chain of several): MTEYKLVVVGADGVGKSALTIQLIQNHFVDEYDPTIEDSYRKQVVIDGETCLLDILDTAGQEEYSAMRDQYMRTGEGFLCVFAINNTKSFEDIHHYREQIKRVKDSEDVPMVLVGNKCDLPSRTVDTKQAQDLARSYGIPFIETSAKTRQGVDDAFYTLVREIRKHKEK
pIC50: −log10 of the molar value.
measured.attribute: pIC50

>  <compound>
CCn1c(-c2cccnc2[C@H](C)OC)c2c3cc(ccc31)-c1cccc(c1)C[C@H](NC(=O)[C@H](C(C)C)N1CC[C@@]3(CCN(C(=O)C#C[C@H]4COCCN4C)C3)C1=O)C(=O)N1CCC[C@H](N1)C(=O)OCC(C)(C)C2 (atropisomer, axis not shown)

>  <result>
5.00 to 6.00

$$$$
>  <compound>
C=CC(=O)N1CC[C@H](C(=O)N(C)[C@H](C(=O)NC2C[C@@H]3CN(CCO3)c3ccc4c(c3)c(c(-c3cccnc3[C@H](C)OC)n4CC)CC(C)(C)COC(=O)[C@@H]3CC(Br)CN(N3)C2=O)C(C)C)C1 (stereo partly drawn)

>  <result>
< 5.00

$$$$
>  <compound>
CCn1c(-c2cccnc2[C@H](C)OC)c2c3cc(ccc31)-c1cc(O)cc(c1)C[C@H](NC(=O)[C@H](C(C)C)N(C)C(=O)[C@H]1CCN(C(=O)C#CC(C)(C)N(C)C)C1)C(=O)N1CCC[C@H](N1)C(=O)OCC(C)(C)C2 (atropisomer, axis not shown)

>  <result>
6.00 to 7.00

$$$$
>  <compound>
C=CC(=O)N1CC[C@H](C(=O)N(C)[C@H](C(=O)N[C@H]2Cc3cccc(c3)-c3ccc4c(c3)c(c(-c3cccnc3[C@H](C)OC)n4CC(F)(F)F)CC(C)(C)COC(=O)[C@@H]3CCCN(N3)C2=O)C(C)C)C1 (atropisomer, axis not shown)

>  <result>
5.00 to 6.00

$$$$
>  <compound>
C=CC(=O)N1C[C@@H](C(=O)N(C)[C@H](C(=O)N[C@H]2Cc3cccc(c3)-c3ccc4c(c3)c(c(-c3cccnc3[C@H](C)OC)n4CC)CC(C)(C)COC(=O)[C@@H]3CCCN(N3)C2=O)C(C)C)C(C)(C)C1 (atropisomer, axis not shown)

>  <result>
< 5.00

$$$$
>  <compound>
C=CC(=O)N1CC(N(C)C(=O)N(C)[C@H](C(=O)N[C@H]2Cc3nc(cs3)-c3ccc4c(c3)c(c(-c3cccnc3[C@H](C)OC)n4CC(F)(F)F)CC(C)(C)COC(=O)[C@@H]3CCCN(N3)C2=O)C(C)C)C1 (atropisomer, axis not shown)

>  <result>
6.00 to 7.00

$$$$
>  <compound>
C=CC(=O)N1CC(OCC(C(=O)N[C@H]2Cc3nc(cs3)-c3ccc4c(c3)c(c(-c3cccnc3[C@H](C)OC)n4CC)CC(C)(C)COC(=O)[C@@H]3CCCN(N3)C2=O)C(C)C)C1 (mixture of isomers)

>  <result>
< 5.00

$$$$
>  <compound>
CC#CC(=O)N1CC(N(C)C(=O)N(C)[C@H](C(=O)N[C@H]2Cc3nc(cs3)-c3ccc4c(c3)c(c(-c3cccnc3[C@H](C)OC)n4CC)CC(C)(C)COC(=O)[C@@H]3CCCN(N3)C2=O)C(C)C)C1 (atropisomer, axis not shown)

>  <result>
5.00 to 6.00

$$$$
>  <compound>
C=CC(=O)N1CC[C@H](C(=O)N(C)[C@H](C(=O)N[C@H]2Cc3cc(O)cc(c3)-c3ccc4c(c3)c(c(-c3ccc(CC(=O)O)cc3)n4CC)CC(C)(C)COC(=O)[C@@H]3CCCN(N3)C2=O)C(C)C)C1

>  <result>
< 5.00

$$$$
>  <compound>
CCn1c(-c2cccnc2[C@H](C)OC)c2c3cc(ccc31)-c1cc(O)cc(c1)C[C@H](NC(=O)[C@H](C(C)C)N(C)C(=O)c1ccc(NC(=O)/C=C/CN(C)C)nc1)C(=O)N1CCC[C@H](N1)C(=O)OCC(C)(C)C2 (atropisomer, axis not shown)

>  <result>
< 5.00

$$$$
>  <compound>
C=CC(=O)C1CC[C@H](C(=O)N(C)[C@H](C(=O)N[C@H]2Cc3nsc(n3)-c3ccc4c(c3)c(c(-c3cccnc3[C@H](C)OC)n4CC)CC(C)(C)COC(=O)[C@@H]3CCCN(N3)C2=O)C(C)C)C1 (stereo partly drawn)

>  <result>
5.00 to 6.00

$$$$
>  <compound>
C=CC(=O)N1CC[C@H](C(=O)N(C)[C@H](C(=O)N[C@H]2Cc3cc(O)cc(c3)-c3ccc4c(c3)c(c(-c3cccnc3)n4CC)CC(C)(C)COC(=O)[C@@H]3CCCN(N3)C2=O)C(C)C)C1

>  <result>
< 5.00

$$$$
>  <compound>
CC#CC(=O)N1CC[C@H](C(=O)N(C)[C@H](C(=O)N[C@H]2Cc3cccc(c3)-c3ccc4c(c3)c(c(-c3cccnc3[C@H](C)OC)n4CC)CC(C)(C)COC(=O)[C@@H]3CCCN(N3)C2=O)C2CCCC2)C1 (atropisomer, axis not shown)

>  <result>
< 5.00

$$$$
>  <compound>
C=CC(=O)N1CC[C@]2(C1)CN(C(=O)N(C)[C@H](C(=O)N[C@H]1Cc3nc(cs3)-c3ccc4c(c3)c(c(-c3cccnc3[C@H](C)OC)n4CC)CC(C)(C)COC(=O)[C@@H]3CCCN(N3)C1=O)C(C)C)CCO2 (atropisomer, axis not shown)

>  <result>
6.00 to 7.00

$$$$
>  <compound>
CCn1c(-c2cccnc2COC)c2c3cc(ccc31)-c1cc(O)cc(c1)C[C@H](NC(=O)[C@H](C(C)C)N(C)C(=O)[C@H]1CCC(C(=O)/C=C\CN(C)C)C1)C(=O)N1CCC[C@H](N1)C(=O)OCC(C)(C)C2 (stereo partly drawn) [Example A164]

>  <result>
5.00 to 6.00

$$$$
